These entries and their values trace back to ChEMBL document CHEMBL1141967.

Parameter 'readout' = pKi; parameter 'system' = Fructose-bisphosphate aldolase A (Oryctolagus cuniculus, UniProt P00883).
Sequence (P00883 whole entry): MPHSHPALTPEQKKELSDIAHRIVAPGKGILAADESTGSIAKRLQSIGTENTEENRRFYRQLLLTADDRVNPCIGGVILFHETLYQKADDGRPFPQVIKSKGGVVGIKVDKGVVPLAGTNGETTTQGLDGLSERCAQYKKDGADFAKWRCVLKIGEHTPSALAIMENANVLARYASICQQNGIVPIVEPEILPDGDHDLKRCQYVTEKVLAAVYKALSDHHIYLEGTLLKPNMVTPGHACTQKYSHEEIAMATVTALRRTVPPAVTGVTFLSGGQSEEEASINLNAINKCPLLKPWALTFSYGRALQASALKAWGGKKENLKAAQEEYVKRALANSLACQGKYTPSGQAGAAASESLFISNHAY
pKi: −log10 of the molar value.

Molecule	pKi
CS(=O)(=O)NC(=O)COP(=O)(O)O	< 2.00
O=C(CCP(=O)(O)O)NO	< 3.00
CS(=O)(=O)NC(=O)CCP(=O)(O)O	< 2.00
O=C(COP(=O)(O)O)NS(=O)(=O)c1ccccc1	< 2.00

State its pKi on Fructose-bisphosphate aldolase A (Oryctolagus cuniculus, UniProt P00883): O=C(COP(=O)(O)O)NO [PHOSPHOGLYCOLOHYDROXAMATE]
6.00
